Tested on: ATP;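 further: ATP exposure 15 min at 22 °C before imaging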
Experiment: switch fluorescence ratio, 500 uM ATP over buffer (Cy3 cluster intensity, sum of 5 cycles each) (fold (ratio)); higher = stronger signal-on switching upon ATP binding; sequences stand for … in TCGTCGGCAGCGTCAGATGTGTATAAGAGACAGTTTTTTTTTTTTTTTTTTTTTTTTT…TC
Settings: aptamer strand: ATP DNA aptamer (quencher-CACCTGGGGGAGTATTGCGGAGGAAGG + anchor), 100 nM annealed; ATP concentration: 500 uM
Each entry below lists one item and its recorded switch fluorescence ratio value.
quantityMeasured: switch fluorescence ratio

INSERT INTO results (sequencechain, observedvalue) VALUES
  ('ACGCGACGG', 1.13),
  ('GATAGAAGTG', 0.986),
  ('TTTTCATGGT', 1.01),
  ('TATGGGGATT', 0.991),
  ('TATGGATCTT', 0.983),
  ('ATATTGGGAG', 0.99),
  ('GAGTAACTGG', 0.983),
  ('AGGCATAAGG', 0.99),
  ('AGTGGGGACG', 1.03),
  ('GCGAGTGTCC', 0.99),
  ('CGGGGTCAAC', 1.24),
  ('TAGAAGCCCC', 1.09),
  ('TTCAAGCAAG', 1.15),
  ('GGAACCCAGA', 0.988),
  ('TGGTGGCGGT', 1.01),
  ('TTCTGCTTAG', 2.04),
  ('TTTTTGGCAT', 1.01),
  ('TATCAAATTA', 1.03),
  ('TCATACGGTA', 1.18),
  ('CGTATTATTG', 1.01),
  ('GGCAGCGTGG', 0.994);

----------
Tested on: ATP;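 further: ATP exposure 15 min at 22 °C before imaging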
Test: switch fluorescence ratio, 500 uM ATP over buffer (Cy3 cluster intensity, sum of 5 cycles each) (fold (ratio)); higher = stronger signal-on switching upon ATP binding; sequences stand for … in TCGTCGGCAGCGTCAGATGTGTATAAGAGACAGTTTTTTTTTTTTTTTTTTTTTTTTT…TC
Details: aptamer strand: ATP DNA aptamer (quencher-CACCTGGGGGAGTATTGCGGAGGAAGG + anchor), 100 nM annealed; ATP concentration: 500 uM
quantityMeasured: switch fluorescence ratio

INSERT INTO measurements (sequencechain, quantitymeasured, observedvalue) VALUES
  ('TCTCTTATGT', 'switch fluorescence ratio', 0.985),
  ('AAGTTCACGG', 'switch fluorescence ratio', 1.06),
  ('TATCTAGGTT', 'switch fluorescence ratio', 1),
  ('TCGGTTTATG', 'switch fluorescence ratio', 0.994),
  ('TAAAAGGGAC', 'switch fluorescence ratio', 1.01),
  ('TGAGGCTAGG', 'switch fluorescence ratio', 1.02),
  ('CATTTGGGAC', 'switch fluorescence ratio', 1.02),
  ('AGTGATGGGG', 'switch fluorescence ratio', 0.987),
  ('TTTTCCCGAA', 'switch fluorescence ratio', 0.967),
  ('TTTCGTCCTT', 'switch fluorescence ratio', 1.18),
  ('GCGAGTATGC', 'switch fluorescence ratio', 1.03),
  ('GTTGGGGGGG', 'switch fluorescence ratio', 1.01),
  ('ACGGGGGAAC', 'switch fluorescence ratio', 1.05),
  ('TATTATTGGG', 'switch fluorescence ratio', 1),
  ('GCTCTATGGT', 'switch fluorescence ratio', 1.01),
  ('AACAGGCGGC', 'switch fluorescence ratio', 0.987),
  ('GCATAAGGTT', 'switch fluorescence ratio', 0.993),
  ('CGGGGTTTCG', 'switch fluorescence ratio', 0.993),
  ('TGTTAATAAC', 'switch fluorescence ratio', 1),
  ('GCCGGTTTTC', 'switch fluorescence ratio', 1.03),
  ('TGGGGAATTT', 'switch fluorescence ratio', 0.987),
  ('AGGTTGAGCT', 'switch fluorescence ratio', 0.979),
  ('GGAGGGACGG', 'switch fluorescence ratio', 1.03),
  ('GGGACTTTTT', 'switch fluorescence ratio', 0.999),
  ('TACTGCGGCA', 'switch fluorescence ratio', 1.04),
  ('GAAAACTTAA', 'switch fluorescence ratio', 1.03),
  ('GTTCACTACC', 'switch fluorescence ratio', 1.15),
  ('AAAACGGATT', 'switch fluorescence ratio', 0.977),
  ('GCTGTTGGGA', 'switch fluorescence ratio', 0.997),
  ('ATAAGGTTTT', 'switch fluorescence ratio', 0.985),
  ('CCGGAAGGGC', 'switch fluorescence ratio', 1.84),
  ('GGGAAAAGGT', 'switch fluorescence ratio', 1.04),
  ('TATGTGTGCG', 'switch fluorescence ratio', 1.02),
  ('GGGGTTAGCG', 'switch fluorescence ratio', 0.991),
  ('TTTCTTTCTC', 'switch fluorescence ratio', 1.02),
  ('TTCGGTCTAA', 'switch fluorescence ratio', 0.979),
  ('GTAGGGGGGT', 'switch fluorescence ratio', 1.07),
  ('CATCGGTGCG', 'switch fluorescence ratio', 1.08),
  ('CACTAATAAT', 'switch fluorescence ratio', 1.03),
  ('AGCTGATGGG', 'switch fluorescence ratio', 1.01),
  ('AAAGTTGCTA', 'switch fluorescence ratio', 0.985),
  ('AAGTTGACGG', 'switch fluorescence ratio', 0.985),
  ('GGGGTAACGT', 'switch fluorescence ratio', 0.983),
  ('GATAGTGTCG', 'switch fluorescence ratio', 1.04),
  ('GCGTAACTTC', 'switch fluorescence ratio', 1.01),
  ('GGGTAAGCTG', 'switch fluorescence ratio', 1.04),
  ('GTCATACCTT', 'switch fluorescence ratio', 1.2),
  ('AAACTCAACG', 'switch fluorescence ratio', 1.08),
  ('CTTGCTGTTG', 'switch fluorescence ratio', 1),
  ('TTACCAAAAC', 'switch fluorescence ratio', 1.41),
  ('TGAATATTGT', 'switch fluorescence ratio', 1.04),
  ('AGGAGGAAGG', 'switch fluorescence ratio', 1.05),
  ('TTTACGGCGT', 'switch fluorescence ratio', 0.994),
  ('TCGGACGTAC', 'switch fluorescence ratio', 1.98),
  ('GAAAAAGGCG', 'switch fluorescence ratio', 1.01),
  ('TTTTTACTGT', 'switch fluorescence ratio', 1.01),
  ('TTTAGTTACG', 'switch fluorescence ratio', 0.987),
  ('GGTGTGAGGT', 'switch fluorescence ratio', 0.997),
  ('AATGATTGGG', 'switch fluorescence ratio', 0.977),
  ('TTAAAATCTG', 'switch fluorescence ratio', 1.02),
  ('GTGAAATTTT', 'switch fluorescence ratio', 1.01),
  ('TTTCGCTCGT', 'switch fluorescence ratio', 0.963),
  ('GAAAAAGGAG', 'switch fluorescence ratio', 1),
  ('GAATTGGGTA', 'switch fluorescence ratio', 0.957),
  ('AATTGTCATT', 'switch fluorescence ratio', 1.01),
  ('CGAGCTTTGA', 'switch fluorescence ratio', 1.03),
  ('TCCAAGACGA', 'switch fluorescence ratio', 1.34),
  ('CCGAGTTATA', 'switch fluorescence ratio', 2.15),
  ('TTGCGTATGA', 'switch fluorescence ratio', 1.04),
  ('ATATGTGGAG', 'switch fluorescence ratio', 0.987),
  ('TCAGTCTTTT', 'switch fluorescence ratio', 0.998),
  ('TTGCGTGCCG', 'switch fluorescence ratio', 0.98),
  ('TGAAGGGTCA', 'switch fluorescence ratio', 0.968),
  ('TAAGGGAAAT', 'switch fluorescence ratio', 1),
  ('TTCACAACCT', 'switch fluorescence ratio', 1.77),
  ('AAGGGCTTCT', 'switch fluorescence ratio', 1.01),
  ('AATAAATCTA', 'switch fluorescence ratio', 1.04),
  ('GGGGCGCGGA', 'switch fluorescence ratio', 1.09),
  ('GTAAAATGGG', 'switch fluorescence ratio', 0.997),
  ('CAGTCCTGTA', 'switch fluorescence ratio', 1),
  ('GAAACGGATG', 'switch fluorescence ratio', 0.993),
  ('CCTCTATTCT', 'switch fluorescence ratio', 1.1),
  ('ACCAATGGTC', 'switch fluorescence ratio', 1.02),
  ('TTTTTGGTAT', 'switch fluorescence ratio', 1.01),
  ('AAAGGCGTGG', 'switch fluorescence ratio', 0.955),
  ('TCGGGGGGGG', 'switch fluorescence ratio', 1);

----------
Each item that follows carries a reported switch fluorescence ratio.
Tested on: ATP;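 further: ATP exposure 15 min at 22 °C before imaging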
Test: switch fluorescence ratio, 500 uM ATP over buffer (Cy3 cluster intensity, sum of 5 cycles each) (fold (ratio)); higher = stronger signal-on switching upon ATP binding; sequences stand for … in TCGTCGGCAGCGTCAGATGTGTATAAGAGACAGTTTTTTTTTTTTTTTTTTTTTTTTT…TC
Conditions: aptamer strand: ATP DNA aptamer (quencher-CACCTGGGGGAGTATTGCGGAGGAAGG + anchor), 100 nM annealed; ATP concentration: 500 uM
quantityMeasured: switch fluorescence ratio

INSERT INTO assay_data (sequencechain, observedvalue) VALUES
  ('ACCCCCTTCT', 1.32),
  ('TTCATTGGTG', 1.09),
  ('ATCATGTTAT', 0.986),
  ('GCTGGGGCCC', 0.998),
  ('ACTGATTTTG', 1.01),
  ('GGTTTTTGGA', 0.981),
  ('GAGGTACTGG', 1.02),
  ('AAATGCCGTT', 0.982),
  ('GTAATGTCTT', 0.98),
  ('GAGGGGTAGG', 0.977),
  ('GAGGGCACTT', 0.978),
  ('CTCAATACTT', 1.79),
  ('GACGGGGTGG', 1.01),
  ('GGCCTGAAAC', 0.993),
  ('CCGGTAAGGA', 0.994),
  ('GGGCATCGAC', 1.05),
  ('GGTTGGTTTC', 1.01),
  ('TTTTAATCCA', 1.01),
  ('GCAGGATGGG', 0.98),
  ('AGTGTTTGCC', 1.04),
  ('GGGAGAGGCT', 0.976),
  ('TTCCCAGATG', 1.81),
  ('AACTGAGTGC', 1),
  ('ATAAATTTTC', 0.951),
  ('TCGCTACCGA', 1.09),
  ('GTTTCGTGGG', 0.976),
  ('TTCATCGGGT', 1.01),
  ('TCCCGATTTC', 1.07),
  ('ACCCAGAGCG', 1.14),
  ('TAGCTGGATG', 0.986),
  ('TTACTTTGGA', 1.03),
  ('TTTTGGTCCG', 1.03),
  ('CCTGGCAGAG', 1.22),
  ('GGGTTCATGT', 1.01),
  ('TGTTGCTGGA', 1),
  ('GGCGGGGCTT', 0.968),
  ('TGAGCGGGTG', 1.01),
  ('CAAGTATTTA', 1.03),
  ('CAGAGGGTGT', 1.12),
  ('TTGTTTATGG', 0.983),
  ('CGGAGGACAC', 1.09),
  ('TCTGGGGCTT', 1.02),
  ('CGGTTAAGGG', 0.982),
  ('ATTTATATAT', 1),
  ('TGCATTGGTG', 1.02),
  ('TTGGGCCCGC', 1.01),
  ('TGGGTTTTCT', 1.08),
  ('CAATGGAGGA', 1.01),
  ('GATACATCGG', 1.03),
  ('TGGGGGGTGG', 1),
  ('ACATGTTGGT', 1.02),
  ('ATTTTTCTTA', 1.01),
  ('CACGGGGGGT', 1.02),
  ('AAGAAAGTGG', 0.993),
  ('CTGGGAGATG', 0.991),
  ('TGTGCTTGGG', 1.04),
  ('CGTGGCAGGG', 0.984),
  ('ACGCGGGACA', 1.04),
  ('GCTAAAAGCT', 1.02),
  ('AAATGTCCGG', 1),
  ('ATATAGGATT', 0.989),
  ('TAGTGGGGGG', 0.989),
  ('GTGTGGGAGG', 1.04),
  ('TTCGGGCGTG', 0.994),
  ('CTACTTGATA', 0.978),
  ('CTCGAAGCG', 1.04),
  ('TGTTCGGTGT', 1.01),
  ('GCACTAGACT', 1.07),
  ('AGTTGAATTG', 0.994),
  ('TGGGGGGGCC', 0.968),
  ('CCTTAAGACT', 1.07),
  ('AGAAATCCTT', 0.976),
  ('TAGGGGCAGC', 1.01),
  ('CGACACGCTG', 1.05),
  ('CCGGTCCCTA', 1),
  ('AGGCAACCAA', 1.02),
  ('AATAATAGGT', 1.02),
  ('ACAAGGGGGG', 1),
  ('ATTTAAGTT', 1),
  ('TCCAAGAGGG', 1.01),
  ('ATTTGCGGTT', 0.995),
  ('TGATAAAGAT', 1.02),
  ('TGGCTTGCG', 1.01),
  ('AGATGGCTGG', 1.02),
  ('TGTTGGAGAG', 1.02),
  ('CACGTTTGTT', 1.03);
